// data source = patent US20240043386A1

Reported Emax (% Dual) values are given for each entry in this list.
Biological target: F508del/F508del CFTR (Homo sapiens, UniProt P13569, DEL508-508)
Construct: cells isolated from CF patients with the homozygous mutation; endogenous in cells; host or cells: primary human bronchial epithelial (hBE) cells from CF patients homozygous for F508del
Sequence (P13569 with tags, fused parts or gaps DEL508-508): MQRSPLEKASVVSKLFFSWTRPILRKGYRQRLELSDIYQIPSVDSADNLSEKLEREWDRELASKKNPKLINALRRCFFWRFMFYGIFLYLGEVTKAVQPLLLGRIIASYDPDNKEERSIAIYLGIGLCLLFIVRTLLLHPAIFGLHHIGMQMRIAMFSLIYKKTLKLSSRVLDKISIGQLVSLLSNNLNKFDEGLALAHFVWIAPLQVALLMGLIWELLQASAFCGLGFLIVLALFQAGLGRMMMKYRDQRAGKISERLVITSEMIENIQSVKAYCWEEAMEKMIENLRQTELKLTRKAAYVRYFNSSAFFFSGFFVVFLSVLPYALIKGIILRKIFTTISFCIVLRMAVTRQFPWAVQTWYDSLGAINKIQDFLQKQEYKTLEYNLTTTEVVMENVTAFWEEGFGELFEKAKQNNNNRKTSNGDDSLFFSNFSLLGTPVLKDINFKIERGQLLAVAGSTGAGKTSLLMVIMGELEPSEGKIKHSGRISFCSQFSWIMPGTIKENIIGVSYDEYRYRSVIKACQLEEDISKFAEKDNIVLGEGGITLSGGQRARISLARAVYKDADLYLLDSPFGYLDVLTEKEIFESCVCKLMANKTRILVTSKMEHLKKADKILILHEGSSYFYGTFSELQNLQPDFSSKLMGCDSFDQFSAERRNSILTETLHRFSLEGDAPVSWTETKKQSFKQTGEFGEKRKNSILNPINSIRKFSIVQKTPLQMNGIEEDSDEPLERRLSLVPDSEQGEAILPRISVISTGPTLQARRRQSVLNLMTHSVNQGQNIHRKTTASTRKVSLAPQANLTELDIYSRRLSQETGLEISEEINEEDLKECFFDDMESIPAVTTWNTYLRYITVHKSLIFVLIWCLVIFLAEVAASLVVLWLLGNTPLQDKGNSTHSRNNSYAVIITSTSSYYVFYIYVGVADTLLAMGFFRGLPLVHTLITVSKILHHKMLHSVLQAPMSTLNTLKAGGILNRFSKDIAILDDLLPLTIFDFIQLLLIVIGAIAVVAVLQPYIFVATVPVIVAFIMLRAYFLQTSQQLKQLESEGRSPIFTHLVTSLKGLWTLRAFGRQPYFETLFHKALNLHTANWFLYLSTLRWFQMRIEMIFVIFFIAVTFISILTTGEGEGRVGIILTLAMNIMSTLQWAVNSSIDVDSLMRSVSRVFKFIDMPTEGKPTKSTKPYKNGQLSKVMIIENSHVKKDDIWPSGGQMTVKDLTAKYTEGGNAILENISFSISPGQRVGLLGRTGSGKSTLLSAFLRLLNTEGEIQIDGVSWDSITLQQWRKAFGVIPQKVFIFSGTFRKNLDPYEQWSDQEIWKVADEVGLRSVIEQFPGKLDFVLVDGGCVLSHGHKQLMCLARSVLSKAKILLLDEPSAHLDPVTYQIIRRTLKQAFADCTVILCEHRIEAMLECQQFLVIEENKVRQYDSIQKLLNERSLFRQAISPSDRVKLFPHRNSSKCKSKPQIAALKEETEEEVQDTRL
Assay: Trans-Epithelial Current Clamp (TECC) assay using primary human bronchial epithelial cells
Type: cell-based
Details: maximum percent activity relative to positive control (co-corrector 0.15 μM + potentiator 0.45 μM = 100%); primary hBE cells F508del/F508del
Numeric only. Scale: % Dual

INSERT INTO assay_data (compound, quantitative_result) VALUES
  ('COc1ccc(C)cc1[C@@]1(C(=O)NS(=O)(=O)c2cccc3nc(C)ccc23)C[C@H]1c1ccc(C)cc1 (racemic) [Example 4]', 417),
  ('COc1ccc(C)cc1C1(C(=O)NS(=O)(=O)c2cccc3nc(C)ccc23)CC1c1ccc(C(F)(F)F)cc1 (racemic)', 253),
  ('COc1cccc([C@H]2C[C@@]2(C(=O)NS(=O)(=O)c2cccc3nc(C)ccc23)c2cc(C)ccc2OC)n1', 272);

Let's switch to this compound now.
Exercise: Given the entry COc1ccc(C)cc1[C@]1(C(=O)NS(=O)(=O)c2cccc3nc(C)ccc23)C[C@@H]1c1ccc(C)nc1OC (single isomer, unassigned) , report its measured Emax (% Dual).
Solution: 176
